# test target: the molecule itself
# measurement notes: native gel or EMSA
measured parameter: stoichiometry N

Return reported stoichiometry N; argument: HA-DrSTING stably expressed in MEF Sting-/- cells (MEF^DrSTING) (natural protein, Danio rerio) MSVMGEDALVPRARSRLPVMCAAGLGFLTLAVAWLLDSDKFSERAGIIAFGLMLERFIYCICLLAEELLFHSRQRYHGRMSEIFRACFRGSGILGMCAIFLMLMLGGVSFSVKQWSHFNLMCAGYMLLNSLGVLGPAPVEISEICEAKKMNVAHGLAWSFYIGYLKFLLPALEVNVREYSRRERLSSPRLHILLPLNARVPSKPEEEDTNVVFHENLPDLKLDRAGVRKRSYTNSVYKITHNNETFSCILEYATPLLTLYQMSQESSAGFGERERKQQVLLFYRTLSQILDNSLECRNRYRLILLNDEHTGDPHYLSRELFQNLKQQDGEIFMDPTNEVHPVPEEGPVGNCNGALQATFHEEPMSDEPTLMFSRPQSLRSEPVETTDYFNPSSAMKQN
≥ 4

Data credit: paper doi:10.1101/2025.11.17.688879
